Where do the numbers come from? From PubChem BioAssay (EPA / NIEHS).

experiment: ATG_AP_2_CIS: Attagene CIS-FACTORIAL HepG2 Assay for human Activator Protein 2 (AP-2) (AID 2282932); settings: HepG2 AP-2 cis-reporter, Attagene transcription factor profiling; actives raise or lower the signal
Activity calls are given as the source filed them. Rule for the calls: active = hit-call score of the fitted dose curve at least 0.9, where 1 is the maximum; inactive = score below 0.9.
Respond with a class label; see active, inactive

>>> cat("CC[C@H](C)[C@H]1O[C@]2(C=C[C@@H]1C)C[C@@H]1C[C@@H](C/C=C(\\C)[C@@H](O[C@H]3C[C@H](OC)[C@@H](O[C@H]4C[C@H](OC)[C@@H](NC)[C@H](C)O4)[C@H](C)O3)[C@@H](C)/C=C/C=C3\\CO[C@@H]4[C@H](O)C(C)=C[C@@H](C(=O)O1)[C@]34O)O2")
"inactive"
>>> cat("CCCCN(CC)c1c([N+](=O)[O-])cc(C(F)(F)F)cc1[N+](=O)[O-]")
"inactive"
>>> cat("CC(Oc1cccc(Cl)c1)C(=O)O (configuration not stated)")
"inactive"
>>> cat("CN1COCN(Cc2cnc(Cl)s2)C1=N[N+](=O)[O-]")
"inactive"

Next up:
Lookup: Test call for this compound, please: CC1=NNC(=O)N(/N=C/c2cccnc2)C1
Found: inactive
